Entries and their measured apparent KD of MS2 coat protein follow.
System: MS2 coat protein
measurementDescription: apparent KD of MS2 coat protein; designed switch direction (-1 OFF switch, 1 ON switch): -1; higher = weaker reporter binding
assayConditions: Eterna round: R95; input ligand: none
The reply should contain only the number, in nM.

Look over these answered cases.
AGGAAUGAAGGAUAUACAUGAGGAUCACCCAUGUAAAAAAAGUCGUUUAUUGUGUCAUGUAGAAGGUCAAGAAG [JR_Exclusion3_Sub002] (puzzle: Exclusion 3) = 33
GCAAAGGUAGGAUAUCCACUGUGCAACAUGAGGAUCACCCAUGUGGUUCUUACCAUAAUUGGAGAAGGGCCGUGCA [Inrariri] (puzzle: Exclusion 5) = 24.2
ACGUGAUAUCUGUCGGUGGACAUGAGGAUCACCCAUGUAAGCUUUUUGCUUGUCUUAUAACCCGGUGACAGACCUUC [Inxeer] (puzzle: Sensor v3, turn-off variant 1) = 26.5
GGUUGGCGAGGAUAUACAUGAGGAUCACCCAUGUGAGAGAAAAAAGUGAGGAAGAAAAGUAGAAGGCGCUGACC [salish99_ex3_r3_048] (puzzle: Exclusion 3) = 53.9
GCCGUGCAAGGAUAUCGCGGAAAGAACAUGAGGAUCACCCAUGUGAUCACCUUCUAAAUGCGAGAAGGUGCUAAAA [Axebied] (puzzle: Exclusion 5) = 81.4
GAGUGACAUGAGGAUCACCCAUGUGAGGAUAUCGGACGGACCAAAUUAACAAUAAUUGCGAGAAGGCGCAUCGG [Exclusion 1 V15] (puzzle: Exclusion 1) = 54.4
UCAAGUAUGUAGGAUAUCGAUGUCCUUGGACAUCGAGAAGGACGUACAUGAGGAUCACCCAUGUAACUUGCAUG [Exclusion 6 - B - 10:e] (puzzle: Exclusion 6) = 94.5
GGUCAAGAGCAGAUCCGCGCUGCCAUUGACCGCUCAUUUACAUGAGGAUCACCCAUGUUUUUUGCUCGUCUUACUAC [Inedsoinin] (puzzle: Sensor v3, turn-off variant 2) = 20.3

Query string: Give the value of apparent KD of MS2 coat protein reported for the following: AAUAGCAAGCAAGAUCCUAACAUGAGGAUCACCCAUGUGCUCGUCUUGUAAAGUACUAUCACGAAAGUGAUAGUACA [Sensor 3, v1 - 49] (puzzle: Sensor v3, turn-off variant 1)
Result string: 31.9

Query string: Give the value of apparent KD of MS2 coat protein reported for the following: AAAAGAGGAGGAUAUGCAAACAAUGUAAAAGUGAAAGUAAAACAUGAGGAUCACCCAUGUAGAAGGCCUGAAAA [nah] (puzzle: Exclusion 2)
Result string: 20.2

Query string: Give the value of apparent KD of MS2 coat protein reported for the following: AAAUAAGAAGGAUAUACAAAUUAAAAGGUCCUUAAGGCAAGACAUGAGGAUCACCCAUGUAGAAGGUCUGAAAA [Teati] (puzzle: Exclusion 2)
Result string: 22.6
